ELISA signal (OD, 450 nm) reference
target: T1, hFGFR2-Fc (human); assay: phage Fab ELISA on coated antigen, anti-M13 detection
T1 construct: Extracellular domain of human FGF-R2 IIIc fused C-terminally to the Fc domain of human IgG1

| binder | value_units | ELISA signal (OD, 450 nm) |
| --- | --- | --- |
| clone 33 in the Fab format displayed on phage (Fab, V domains shown) VH: EVQLLESGGGLVQPGGSLRLSCAASGFTFSTYWMAWVRQAPGKGLEWVSVIGPSGGMTVYADSVKGRFTISRDNSKNTLYLQMNSLRAEDTAVYYCARINSGSSHFDYWGQGTLVTVSS VL: QSVLTQPPSASGTPGQGVTISCSGSSSNIGSNSVNWYQQLPGAAPKLLIYSNNLRPSGVPARFSGSKSGTSASLAISGLRSEDEADYYCAAWDDGLDAYVVFGGGTKLTVLG | OD 450 nm | 0 |
| clone 36 in the Fab format displayed on phage (Fab, V domains shown) VH: EVQLLESGGGLVQPGGSLRLSCAASGFTFSHYWMGWVRQAPGKGLEWVSVISPSGGLTIYADSVKGRFTISRDNSKNTLYLQMNSLRAEDTAVYYCARSSGWALDAFDIWGQGTMVTVSS VL: QYELTQPPSASGTPGQRVTISCSGSSSNIGSNIVHWYQQLPGTAPKLLIYGNNQRPSGVPDRFSVSKSGSSASLAISGLQSEDEADYYCASWDDSLKAFYVFGTGTKVTVLG | OD 450 nm | -0.01 |
| clone 8 in the Fab format displayed on phage (Fab, V domains shown) VH: EVQLLESGGGLVQPGGSLRLSCAASGFTFSPYWMGWVRQAPGKGLEWVSVIWPSGGTTDYADSVKGRFTISRDNSKNTLYLQMNSLRAEDTAVYYCARVHPAGHNDHWGQGTLVTVSS VL: QSELTQPPSASGTPGQRVTISCSGGYSNMGSNYAHWYQQLPGTAPKLLIYNNNQRPSGVPDRFSGSKSGTSASLAISGLRSEDEADYYCAAWDDSLSGPVFGGGTKLTVLG | OD 450 nm | 0 |
| clone 31 in the Fab format displayed on phage (Fab, V domains shown) VH: EVQLLESGGGLVQPGGSLRLSCAASGFTFSRYFMKWVRQAPGKGLEWVSWISPSGGLTEYADSVKGRFTISRDNSKNTLYLQMNSLRAEDTAVYYCARASYGAWLDYWGQGTLVTVSS VL: DIQMTQSPSSLSLSPGERATLSCRASQSINRNLGWYQQKPGQAPRLLIYGASTRATGIPARFTGSGSGTEFSLTISSLQSEDYAIYYCQQYDNWPIIFGQGTRLEIKG | OD 450 nm | 0 |
